Catalogue of normalized growth readings, one per entry.
Assay: chemical genetic growth profiling, strain panel (AID 1159580);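 further: tested at 20 µM; growth read once vehicle control cultures reached saturation at 30 °C; 1 = growth at the plate median or of vehicle wells; lower values mean less growth of the strain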
Conditions: S. cerevisiae deletion strains, growth OD, locus YGR078C, strain PAC10, stronger effect = lower value
The whole screen tested about 5,500 compounds, of which about 2,000 (36%) were called active. Inconclusive results (about 18%) are left out. The list shows a part of the results.

| COMPOUND | normalized growth |
| --- | --- |
| COc1ccc(Oc2cc(C)nc3ccccc23)cc1 | 1.01 (inactive) |
| N#CC(NCc1ccccc1)c1ccc(Cl)c(Cl)c1 (stereo unspecified) | 0.984 (inactive) |
| COc1ccc2c(c1)c(CC(=O)O)c(C)n2C(=O)c1ccccc1 | 1.03 (inactive) |
| OC(CCN1CCCCC1)(c1ccccc1)C1CCCCC1 (stereo unspecified) | 0.996 (inactive) |
| C=CCn1c(=O)c2c(nc(-c3ccc(S(=O)(=O)O)cc3)n2C)n(C)c1=O | 0.997 (inactive) |
| CC(C)(C)c1nccc(-c2nn(-c3ccc(F)cc3)ccc2=O)n1 | 1.01 (inactive) |
| CC(C)(Sc1cc(C(C)(C)C)c(O)c(C(C)(C)C)c1)Sc1cc(C(C)(C)C)c(O)c(C(C)(C)C)c1 | 1.02 (inactive) |
| O=C(O)c1ccc(N=Cc2ccc3c(c2)OCO3)cc1 | 0.994 (inactive) |
| Cc1c(Br)sc2ccc(Cl)cc12 | 0.952 (inactive) |
| COC1=C[C@@H]2[C@@H]3Cc4ccc(OC)c(O)c4[C@]2(CCN3C)CC1=O | 0.965 (inactive) |
| Cc1cc(C(C)(C)C)c(O)c(C(C)(C)C)c1 | 0.93 (inactive) |
| Cc1cc(O)cc(C)c1Cl | 0.974 (inactive) |
| Cc1cc(OCOc2ccc(Cl)c(C)c2)ccc1Cl | 1.01 (inactive) |
| CCOC(=O)NC(=O)c1cn(Cc2cccs2)c(=O)[nH]c1=O | 0.993 (inactive) |
| O=c1c2ccccc2nc2n1CCc1c-2[nH]c2ccccc12 | 1 (inactive) |
| Nc1c2c(nc3ccccc13)CCCC2 | 0.992 (inactive) |
